system.tested: KRAS (aa 1-169) G12C, C51S, C80L, C118S (Homo sapiens (Human), UniProt P01116, C118S/C51S/C80L/G12C)
Sequence (P01116 other isoform, or with tags, fused parts or gaps G12C/C51S/C80L/C118S): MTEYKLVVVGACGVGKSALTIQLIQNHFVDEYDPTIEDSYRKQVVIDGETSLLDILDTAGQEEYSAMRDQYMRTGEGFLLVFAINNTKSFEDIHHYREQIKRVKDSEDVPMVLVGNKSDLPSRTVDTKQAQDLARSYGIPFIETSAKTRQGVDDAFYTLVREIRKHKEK
method.summary: Biochemical functional assay: SOS1-mediated nucleotide exchange of GDP-loaded KRAS G12C, binding to GST-cRaf RBD, FRET readout
run.parameters: 3 hrs pre-incubation with compound at 24° C., SOS1, GTPyS, inhibition of nucleotide exchange
Could you please report measured pIC50 for the items listed next?
Formally, pIC50 is defined as -log10 of the concentration c, with c in mol/L.

Query: pIC50; subject: C=CC(=O)N1CCN(c2ncnc3cc(-c4c(C)c(C)cc5[nH]ncc45)c4c(c23)OCCC4)C[C@@H]1CC#N [Compound A25]
7.81

Another: C=C(F)C(=O)N1CCN(c2nc(OC[C@@H]3C[C@@H](F)CN3C)nc3cc(-c4cccc5cccc(Cl)c45)c4ccoc4c23)C[C@@H]1CC#N [Compound B65]
7.52

Another: C=C(F)C(=O)N1CCN(c2ncnc3cc(-c4c(C)cccc4F)c4c(c23)OCCC4)C[C@@H]1CC#N [Compound A30]
5.71

Another: C=CC(=O)N1CCN(c2nc(N3CC(N(C)C)C3)nc3cc(-c4c(F)cccc4F)c4c(c23)OCCC4)CC1 [Compound B2]
5.65

Another: C=C(F)C(=O)N1CCN(c2nc(OC[C@@H]3CCN(C)C3)nc3cc(-c4cccc5cccc(Cl)c45)c4c(c23)OCCC4)C[C@@H]1CC#N [Compound B75]
7.36

Another: C=CC(=O)N1CCN(c2nc(OC[C@@H]3CCCN3C)nc3cc(-c4c(F)cccc4Cl)c4ccoc4c23)CC1 [Compound B57]
5.99
